assay-procedure: DHB dehydrogenase activity of cytosolic enzymes (DHB-dependent reduction of NAD+)
Assay type: biochemical
run-conditions: activity measured at 50 mM DHB; Table 4
Task for the reader: assign each of the following molecules its reported Max. specific activity, DHB.
Record the value in µmol/mg/min, omitting the unit from your answer.

# Max. specific activity, DHB lookup, item Ec-MdhR81A M85Q I12V: E. coli malate dehydrogenase mutant R81A M85Q I12V, SEQ ID No. 164 (protein, listed as Escherichia coli) MKVAVLGAAGGVGQALALLLKTQLPSGSELSLYDIAPVTPGVAVDLSHIPTAVKIKGFSGEDATPALEGADVVLISAGVAAKPGQDRSDLFNVNAGIVKNLVQQVAKTCPKACIGIITNPVNTTVAIAAEVLKKAGVYDKNKLFGVTTLDIIRSNTFVAELKGKQPGEVEVPVIGGHSGVTILPLLSQVPGVSFTEQEVADLTKRIQNAGTEVVEAKAGGGSATLSMGQAAARFGLSLVRALQGEQGVVECAYVEGDGQYARFFSQPLLLGKNGVEERKSIGTLSAFEQNALEGMLDTLKKDIALGEEFVNK
7.1

Requested read-out: Max. specific activity, DHB. Entry: Ec-MdhR81A: E. coli malate dehydrogenase mutant R81A, SEQ ID No. 156 (protein, listed as Escherichia coli) MKVAVLGAAGGIGQALALLLKTQLPSGSELSLYDIAPVTPGVAVDLSHIPTAVKIKGFSGEDATPALEGADVVLISAGVAAKPGMDRSDLFNVNAGIVKNLVQQVAKTCPKACIGIITNPVNTTVAIAAEVLKKAGVYDKNKLFGVTTLDIIRSNTFVAELKGKQPGEVEVPVIGGHSGVTILPLLSQVPGVSFTEQEVADLTKRIQNAGTEVVEAKAGGGSATLSMGQAAARFGLSLVRALQGEQGVVECAYVEGDGQYARFFSQPLLLGKNGVEERKSIGTLSAFEQNALEGMLDTLKKDIALGEEFVNK
0.3

Value source: patent US9605283B2
